test system: Human immunodeficiency virus 1; assay: Effective concentration of compound required to protect human T-lymphocytic cells against the cytopathogenicity of HIV-1; assay type: functional, organism-based; conditions: Human immunodeficiency virus 1
pEC50: −log10 of the molar value.
EXPERIMENTAL READOUT: pEC50

Study these solved cases before continuing.
[
  {
    "COMPOUND": "NC(=O)C[C@@H]1NC(=O)C(N)C(O)c2ccc(c(Cl)c2)Oc2cc3cc(c2O)Oc2ccc(cc2)C(O)C2NC(=O)C(NC(=O)C3NC1=O)c1ccc(O)c(c1)-c1c(O)cc(O)cc1[C@H](C(=O)O)NC2=O (stereo not given in full)",
    "TESTED TARGET": "Human immunodeficiency virus 1",
    "EXPERIMENTAL READOUT": "pEC50",
    "OBS VALUE": 3.94
  },
  {
    "COMPOUND": "CCCCCCCCCCCCCCCCCCNCc1c(O)cc2c(c1O)-c1cc(ccc1O)C1NC(=O)C3NC(=O)C4NC(=O)C(Cc5ccc(c(Cl)c5)Oc5cc3cc(c5O)Oc3ccc(cc3Cl)C(O)C(NC1=O)C(=O)N[C@H]2C(=O)NC)NC(=O)C(N)c1ccc(O)c(c1)Oc1cc(O)cc4c1 (stereo not given in full)",
    "TESTED TARGET": "Human immunodeficiency virus 1",
    "EXPERIMENTAL READOUT": "pEC50",
    "OBS VALUE": 5.60
  },
  {
    "COMPOUND": "CCCCc1ccc(CNCc2c(O)cc3c(c2O)-c2cc(ccc2O)C2NC(=O)C4NC(=O)C5NC(=O)C(Cc6ccc(c(Cl)c6)Oc6cc4cc(c6O)Oc4ccc(cc4Cl)C(O)C(NC2=O)C(=O)N[C@H]3C(=O)NC)NC(=O)C(NC(=O)OC(C)(C)C)c2ccc(O)c(c2)Oc2cc(O)cc5c2)cc1 (stereo not given in full)",
    "TESTED TARGET": "Human immunodeficiency virus 1",
    "EXPERIMENTAL READOUT": "pEC50",
    "OBS VALUE": 5.22
  },
  {
    "COMPOUND": "O=CC(=O)c1[nH]c2ccccc2c1NC1C(=O)NC2Cc3ccc(c(Cl)c3)Oc3cc4cc(c3O)Oc3ccc(cc3Cl)C(O)C3NC(=O)C(NC(=O)C4NC(=O)C(NC2=O)c2cc(O)cc(c2)Oc2cc1ccc2O)c1ccc(O)c(c1)-c1c(O)cc(O)cc1[C@H](C(=O)O)NC3=O (stereo not given in full)",
    "TESTED TARGET": "Human immunodeficiency virus 1",
    "EXPERIMENTAL READOUT": "pEC50",
    "OBS VALUE": 5.00
  },
  {
    "COMPOUND": "CC(C)CC(C(=O)NC1C(=O)NC(CC(N)=O)C(=O)NC2C(=O)NC3C(=O)NC(C(=O)N[C@@H](C(=O)O)c4cc(O)c(CN5CCN(Cc6ccc(-c7ccccc7)cc6)CC5)c(O)c4-c4cc3ccc4O)C(O)c3ccc(cc3)Oc3cc2cc(c3O)Oc2ccc(cc2Cl)C1O)N(C)C(=O)OC(C)(C)C (stereo not given in full)",
    "TESTED TARGET": "Human immunodeficiency virus 1",
    "EXPERIMENTAL READOUT": "pEC50",
    "OBS VALUE": 5.35
  }
]

P = CNC(=O)[C@@H]1NC(=O)C2NC(=O)C(NC(=O)C3NC(=O)C4NC(=O)C(Cc5ccc(c(Cl)c5)Oc5cc3cc(c5O)Oc3ccc(cc3Cl)C2O)NC(=O)C(N)c2ccc(O)c(c2)Oc2cc(O)cc4c2)c2ccc(O)c(c2)-c2c(O)cc(O)cc21 (stereo not given in full)
Q = COC(=O)[C@@H]1NC(=O)C2NC(=O)C(NC(=O)C(N)c3cc(Oc4ccc(CC(NC(=O)OCc5ccccc5)C(=O)O)cc4Cl)c(O)c(c3)Oc3ccc(cc3Cl)C2O)c2ccc(O)c(c2)-c2c(O)cc(O)cc21 (stereo not given in full)
Record comparison, field pEC50: mark the lower of P and Q . Let me know the label of the one you choose.
Q
(Q: 4.60, P: 4.82)
